- Measured Target: ErbB2 with Exon 20 YVMA insertion (HER2-YVMA) (Homo sapiens (Human), UniProt P04626, INS775YVMA)
- Sequence (P04626 other isoform, or with tags, fused parts or gaps ins YVMA behind 775): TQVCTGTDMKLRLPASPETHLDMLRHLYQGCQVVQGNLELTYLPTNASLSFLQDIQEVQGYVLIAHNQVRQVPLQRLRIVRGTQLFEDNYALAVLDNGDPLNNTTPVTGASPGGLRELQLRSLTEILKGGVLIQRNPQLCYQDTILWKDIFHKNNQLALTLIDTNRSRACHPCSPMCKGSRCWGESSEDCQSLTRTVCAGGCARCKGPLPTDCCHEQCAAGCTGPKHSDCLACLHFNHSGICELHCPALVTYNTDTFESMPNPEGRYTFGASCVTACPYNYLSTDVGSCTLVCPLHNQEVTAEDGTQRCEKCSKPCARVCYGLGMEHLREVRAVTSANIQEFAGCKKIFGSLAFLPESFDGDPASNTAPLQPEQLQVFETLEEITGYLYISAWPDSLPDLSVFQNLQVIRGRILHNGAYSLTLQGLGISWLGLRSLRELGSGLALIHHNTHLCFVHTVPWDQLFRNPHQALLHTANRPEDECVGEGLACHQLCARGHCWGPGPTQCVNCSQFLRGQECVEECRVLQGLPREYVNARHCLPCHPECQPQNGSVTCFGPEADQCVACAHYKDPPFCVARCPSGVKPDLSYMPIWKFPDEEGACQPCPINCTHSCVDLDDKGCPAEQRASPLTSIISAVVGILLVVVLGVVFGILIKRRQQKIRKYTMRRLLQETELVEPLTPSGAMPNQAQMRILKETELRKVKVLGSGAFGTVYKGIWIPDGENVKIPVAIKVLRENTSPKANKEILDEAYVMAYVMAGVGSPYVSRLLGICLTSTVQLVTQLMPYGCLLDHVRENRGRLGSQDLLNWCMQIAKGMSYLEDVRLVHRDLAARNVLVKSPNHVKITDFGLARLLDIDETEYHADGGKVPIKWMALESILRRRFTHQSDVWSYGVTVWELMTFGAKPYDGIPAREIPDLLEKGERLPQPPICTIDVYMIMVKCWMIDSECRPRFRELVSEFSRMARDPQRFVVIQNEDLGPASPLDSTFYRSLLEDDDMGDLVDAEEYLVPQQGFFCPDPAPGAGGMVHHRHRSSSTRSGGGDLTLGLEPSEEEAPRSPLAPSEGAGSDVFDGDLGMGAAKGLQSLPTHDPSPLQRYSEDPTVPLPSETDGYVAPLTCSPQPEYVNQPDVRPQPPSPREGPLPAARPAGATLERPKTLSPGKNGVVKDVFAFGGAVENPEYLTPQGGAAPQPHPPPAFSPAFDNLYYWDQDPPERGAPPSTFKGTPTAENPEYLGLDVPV
- Experimental Protocol: Cellular phosphorylation assay, constitutive ErbB2 phosphorylation (Y1196) in engineered NIH 3T3 cells, Assay 4
pIC50: −log10 of the molar value.
Would you please tag the item TRUE when its pIC50 is 8 or above, and FALSE when it is below?

smiles_representation=Cn1cnc2cc(Oc3ccc(Nc4ncnc5cnc(N6CCC(C)(O)CC6)nc45)cc3Cl)ccc21 class_assignment=TRUE

Query :: Hi team, for "Cc1cc(Nc2ncnc3cnc(N4CCCC4)nc23)ccc1Oc1ccc2c(c1)ncn2C" , is the recorded pIC50 at or above 8?
Result :: FALSE

Query :: Say whether "Clc1cc(Nc2ncnc3cnc(N4CCC45COC5)nc23)ccc1Oc1ccn2ncnc2c1" shows pIC50 of 8 or more.
Result :: FALSE

Query :: Quick check: does "Cc1cc(Nc2ncnc3cnc(N4C[C@H]5CC[C@@H]4CO5)nc23)ccc1Oc1ccn2ncnc2c1" have pIC50 greater than or equal to 8?
Result :: FALSE

Query :: State whether the measured pIC50 reaches 8, counting equality as reaching it, for "COC1CN(c2ncc3ncnc(Nc4ccc(Oc5ccc6c(c5)ncn6C)c(C)c4)c3n2)C1"
Result :: FALSE

Query :: In plain terms: is recorded pIC50 at least 8 for "Cc1cc(Nc2ncnc3cnc(OCC(F)F)nc23)ccc1Oc1ccc2c(c1)ncn2C" ?
Result :: FALSE

Query :: Entry "Cc1cc(Nc2ncnc3cnc(N(C)[C@H]4C[C@H](O)C4)nc23)ccc1Oc1ccc2c(c1)ncn2C" : is its pIC50 no less than 8?
Result :: TRUE

====

Below are pIC50 values measured for ErbB2 WT (Homo sapiens (Human), UniProt P04626).
A value of pIC50 is the negative decimal logarithm of a concentration given in moles per litre.

Query :: Please respond with reported pIC50 (system ErbB2 WT (Homo sapiens (Human), UniProt P04626)) for C[C@@H]1CN(c2ncc3ncnc(Nc4ccc(Oc5ccc6c(c5)ncn6C)c(Cl)c4)c3n2)CCN1C [Example 439] .
Result :: 7.15

Query :: System ErbB2 WT (Homo sapiens (Human), UniProt P04626). Read-out pIC50. Item Cc1cc(Nc2ncnc3cnc(NCc4cnn(C)c4C)nc23)ccc1Oc1ccc2c(c1)ncn2C [Example 103] . Report value.
Result :: 7.25

Query :: Give reported pIC50 for Cc1cc(Nc2ncnc3cnc(OCC(F)F)nc23)ccc1Oc1ccc2c(c1)ncn2C [Example 177] (ErbB2 WT (Homo sapiens (Human), UniProt P04626))
Result :: 6.82

Query :: // output pIC50; input Cc1cc(Nc2ncnc3cnc(N(C)C4CCOCC4)nc23)ccc1Oc1ccc2c(c1)ncn2C [Example 153] ; system ErbB2 WT (Homo sapiens (Human), UniProt P04626)
Result :: 7.79

====

- Measured Target: ErbB2 WT (Homo sapiens (Human), UniProt P04626)
- Sequence (P04626 23-1255): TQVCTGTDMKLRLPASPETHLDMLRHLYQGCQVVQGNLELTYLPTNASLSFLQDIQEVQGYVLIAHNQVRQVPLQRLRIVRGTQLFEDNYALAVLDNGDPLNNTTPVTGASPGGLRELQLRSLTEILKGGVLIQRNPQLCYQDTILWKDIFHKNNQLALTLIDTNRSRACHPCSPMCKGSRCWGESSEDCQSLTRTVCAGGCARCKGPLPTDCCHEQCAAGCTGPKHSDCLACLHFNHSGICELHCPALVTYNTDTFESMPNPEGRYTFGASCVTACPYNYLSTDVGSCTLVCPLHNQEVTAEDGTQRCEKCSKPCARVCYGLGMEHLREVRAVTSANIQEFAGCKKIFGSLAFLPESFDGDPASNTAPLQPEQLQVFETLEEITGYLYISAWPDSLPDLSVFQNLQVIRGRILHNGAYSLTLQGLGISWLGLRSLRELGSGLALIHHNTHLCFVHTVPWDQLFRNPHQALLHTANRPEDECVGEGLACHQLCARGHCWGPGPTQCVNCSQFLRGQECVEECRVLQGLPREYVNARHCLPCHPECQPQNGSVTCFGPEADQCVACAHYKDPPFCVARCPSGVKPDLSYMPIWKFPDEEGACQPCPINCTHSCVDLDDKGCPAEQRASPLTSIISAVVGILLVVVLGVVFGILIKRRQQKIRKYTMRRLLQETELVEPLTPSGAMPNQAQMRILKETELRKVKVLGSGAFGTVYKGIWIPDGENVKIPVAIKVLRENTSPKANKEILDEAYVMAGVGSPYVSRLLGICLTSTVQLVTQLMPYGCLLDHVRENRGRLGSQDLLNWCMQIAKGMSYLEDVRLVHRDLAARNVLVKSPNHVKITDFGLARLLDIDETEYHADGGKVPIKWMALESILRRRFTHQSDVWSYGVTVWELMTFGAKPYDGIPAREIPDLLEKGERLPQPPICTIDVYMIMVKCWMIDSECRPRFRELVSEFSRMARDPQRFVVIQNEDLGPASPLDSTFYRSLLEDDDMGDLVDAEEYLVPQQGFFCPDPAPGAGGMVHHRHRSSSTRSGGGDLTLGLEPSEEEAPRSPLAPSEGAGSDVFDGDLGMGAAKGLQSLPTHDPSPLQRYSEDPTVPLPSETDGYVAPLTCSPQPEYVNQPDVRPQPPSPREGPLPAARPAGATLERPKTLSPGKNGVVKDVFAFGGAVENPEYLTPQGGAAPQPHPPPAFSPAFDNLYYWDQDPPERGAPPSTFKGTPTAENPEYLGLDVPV
Returns: string. Value is YES if measured IC50 is below 80 nM, and NO if it is greater than or equal to it.

These solved cases illustrate the format of a correct answer.
molecule=Cc1cc(Nc2ncnc3cnc(N4C[C@H]5CC[C@@H]4CO5)nc23)ccc1Oc1ccc2c(c1)ncn2C class_assignment=YES
molecule=CON1CCN(c2ncc3ncnc(Nc4ccc(Oc5ccn6ncnc6c5)c(Cl)c4)c3n2)CC1 class_assignment=YES
molecule=CO[C@@H]1CN(c2ncc3ncnc(Nc4ccc(Oc5ccc6c(c5)ncn6C)c(C)c4)c3n2)C[C@@H]1O class_assignment=YES

Query :: Check if IC50 falls below 80 nM for "Cc1cc(Nc2ncnc3cnc(N4C[C@@H]5C[C@H]4C[C@H]5O)nc23)ccc1Oc1ccc2c(c1)ncn2C" .
Result :: YES

Query :: Determine if "Cc1cc(Nc2ncnc3cnc(N(C)C4COC4)nc23)ccc1Oc1ccc2c(c1)ncn2C" shows IC50 strictly lower than 80 nM.
Result :: YES

Query :: Item "O[C@@H]1C[C@H]2C[C@@H]1CN2c1ncc2ncnc(Nc3ccc(Oc4ccn5ncnc5c4)c(Cl)c3)c2n1" : IC50 beneath 80 nM, strictly?
Result :: YES

Query :: Take the molecule Cc1cc(Nc2ncnc3cnc(N(C)CC4CCO4)nc23)ccc1Oc1ccc2c(c1)ncn2C (stereo not drawn) and say whether its IC50 is less than 80 nM.
Result :: NO

Query :: Please indicate whether the reported IC50 of "Cc1cc(Nc2ncnc3cnc(N4CC[C@@H](C(F)F)C4)nc23)ccc1Oc1ccc2c(c1)ncn2C" is strictly below 80 nM.
Result :: NO

Query :: Please state whether IC50 is below 80 nM for "N#CC[C@H]1CCN(c2ncc3ncnc(Nc4ccc(Oc5ccn6ncnc6c5)c(Cl)c4)c3n2)C1"
Result :: YES

Query :: Would you kindly verify if IC50 of "Cc1cc(Nc2ncnc3cnc(N(C)[C@@H]4CCC[C@H]4O)nc23)ccc1Oc1ccc2c(c1)ncn2C" is strictly less than 80 nM?
Result :: YES

Query :: Just wondering, is IC50 of "Cc1cc(Nc2ncnc3cnc(N4C[C@H]5C[C@@H]4CO5)nc23)ccc1Oc1cc(F)c2c(c1)ncn2C" below 80 nM?
Result :: NO

Query :: A record lists Cc1c(Oc2ccc3c(c2)ncn3C)ccc(Nc2ncnc3cnc(N4CC5CC5(O)C4)nc23)c1F (stereo not drawn) . Is its IC50 below 80 nM?
Result :: NO

Query :: Identify whether the molecule "Cc1cc(Nc2ncnc3cnc(N4CCN(C)C4=O)nc23)ccc1Oc1ccc2c(c1)ncn2C" records IC50 below 80 nM.
Result :: NO

Query :: Lab log: compare recorded IC50 with 80 nM; is it strictly lower for "CC(=O)O[C@H]1CN(c2ncc3ncnc(Nc4ccc(Oc5ccc6c(c5)ncn6C)c(C)c4)c3n2)C[C@H]1F" ?
Result :: NO

Query :: Please indicate whether the reported IC50 of "Cc1cc(Nc2ncnc3cnc(N(C)[C@H]4C[C@@](C)(O)C4)nc23)ccc1Oc1ccc2c(c1)ncn2C" is strictly below 80 nM.
Result :: YES

====

The reader will find IC50 measurements below, all made with EGFR (Homo sapiens (Human)).
Sequence (P00533 25-1210): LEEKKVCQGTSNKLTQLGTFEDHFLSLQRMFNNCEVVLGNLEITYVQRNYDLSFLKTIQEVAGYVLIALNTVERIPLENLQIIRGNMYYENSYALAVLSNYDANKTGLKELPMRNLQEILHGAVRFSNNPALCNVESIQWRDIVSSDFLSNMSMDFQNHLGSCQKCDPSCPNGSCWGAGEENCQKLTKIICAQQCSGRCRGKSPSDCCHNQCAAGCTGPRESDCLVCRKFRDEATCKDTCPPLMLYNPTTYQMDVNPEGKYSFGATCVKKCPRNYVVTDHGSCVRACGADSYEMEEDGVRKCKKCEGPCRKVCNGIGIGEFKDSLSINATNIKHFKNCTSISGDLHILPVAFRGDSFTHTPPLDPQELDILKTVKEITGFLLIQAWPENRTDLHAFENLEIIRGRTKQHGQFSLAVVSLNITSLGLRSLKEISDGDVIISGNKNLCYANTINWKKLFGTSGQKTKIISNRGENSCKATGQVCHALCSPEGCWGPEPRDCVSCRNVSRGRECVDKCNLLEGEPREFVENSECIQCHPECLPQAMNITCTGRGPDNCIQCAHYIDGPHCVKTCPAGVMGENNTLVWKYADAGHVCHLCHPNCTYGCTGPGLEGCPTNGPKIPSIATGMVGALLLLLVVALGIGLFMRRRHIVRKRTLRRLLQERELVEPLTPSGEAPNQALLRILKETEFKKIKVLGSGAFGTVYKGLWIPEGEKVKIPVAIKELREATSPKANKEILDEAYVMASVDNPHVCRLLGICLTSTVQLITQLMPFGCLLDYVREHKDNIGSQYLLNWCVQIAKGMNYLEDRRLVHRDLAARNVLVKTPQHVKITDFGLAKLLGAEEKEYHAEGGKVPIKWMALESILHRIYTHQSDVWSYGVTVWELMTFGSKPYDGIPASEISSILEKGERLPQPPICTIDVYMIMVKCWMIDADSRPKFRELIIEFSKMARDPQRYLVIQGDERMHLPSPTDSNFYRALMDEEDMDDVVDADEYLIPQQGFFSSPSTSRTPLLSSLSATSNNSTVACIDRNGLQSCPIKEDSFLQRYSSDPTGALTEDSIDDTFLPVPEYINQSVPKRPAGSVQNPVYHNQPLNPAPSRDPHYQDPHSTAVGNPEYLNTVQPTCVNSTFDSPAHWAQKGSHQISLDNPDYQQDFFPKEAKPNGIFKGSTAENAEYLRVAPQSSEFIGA
Please give a number only; it is taken to be in µM.

compound=C[C@H]1CN(c2ncc3ncnc(Nc4ccc(Oc5ccn6ncnc6c5)c(Cl)c4)c3n2)C[C@@H]1O readout_type=IC50 unit_tag=µM numeric_result=4
compound=CCOc1ncc2ncnc(Nc3ccc(Oc4ccc5scnc5c4)c(C)c3)c2n1 readout_type=IC50 unit_tag=µM numeric_result=4.25
compound="Cc1cc(Nc2ncnc3cnc(N4CC(C)CS4(=O)=O)nc23)ccc1Oc1ccc2c(c1)ncn2C (stereo not shown)" readout_type=IC50 unit_tag=µM numeric_result=6.36
compound=Cc1cc(Nc2ncnc3cnc(N(C)C)nc23)ccc1Oc1ccc2scnc2c1 readout_type=IC50 unit_tag=µM numeric_result=1.26

The record that follows has no IC50 shown yet.
Query :: Check the records and state IC50 for Cc1cc(Nc2ncnc3cnc(N4CCC4)nc23)ccc1Oc1ccc2scnc2c1 [Example 44, 2,2,2-trifluoroacetate]
Result :: 3.31

====

- Measured Target: BCRP (Homo sapiens (Human))
- Sequence (Q9UNQ0 whole entry): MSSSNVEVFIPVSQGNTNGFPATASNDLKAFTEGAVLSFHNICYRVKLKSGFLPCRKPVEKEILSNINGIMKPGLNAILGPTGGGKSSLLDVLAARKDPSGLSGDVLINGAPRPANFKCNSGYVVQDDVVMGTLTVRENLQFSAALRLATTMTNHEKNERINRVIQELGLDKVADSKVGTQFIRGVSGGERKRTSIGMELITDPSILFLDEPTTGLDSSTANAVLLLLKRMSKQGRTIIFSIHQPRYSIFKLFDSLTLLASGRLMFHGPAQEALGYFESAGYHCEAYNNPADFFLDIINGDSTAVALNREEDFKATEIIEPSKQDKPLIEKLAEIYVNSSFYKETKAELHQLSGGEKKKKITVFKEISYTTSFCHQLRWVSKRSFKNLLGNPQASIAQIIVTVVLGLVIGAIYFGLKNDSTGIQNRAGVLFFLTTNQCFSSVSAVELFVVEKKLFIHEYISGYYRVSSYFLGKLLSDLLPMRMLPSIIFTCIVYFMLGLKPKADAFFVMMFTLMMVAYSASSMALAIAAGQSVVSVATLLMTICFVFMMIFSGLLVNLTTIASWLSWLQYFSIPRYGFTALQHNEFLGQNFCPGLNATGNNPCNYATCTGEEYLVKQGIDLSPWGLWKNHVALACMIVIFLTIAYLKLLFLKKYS
- Experimental Protocol: BCRP transfected MDCKII canine Mdr1 knockout permeability/efflux, Assay 9
- Measurement Setup: dog, Assay 9 Pe Ratio, efflux ratio Papp(B-A)/Papp(A-B), BCRP transfected MDCKII canine Mdr1 knockout
Listing of entries alongside the reported efflux ratio at 2 h, 1 μM.
// keep it numeric: no unit symbol after the value

// below: answered compounds
compound="Cc1cc(Nc2ncnc3cnc(N(C)CC(C)(C)O)nc23)ccc1Oc1ccc2c(c1)ncn2C [Example 163]" numeric_result=2.7
compound="Cn1cnc2cc(Oc3ccc(Nc4ncnc5cnc(N6CCOCC6)nc45)cc3F)ccc21.O=C(O)C(F)(F)F [Example 80]" numeric_result=2.4
compound="Cc1cc(Nc2ncnc3cnc(N4CCO[C@H]5C[C@H]54)nc23)ccc1Oc1ccc2c(c1)ncn2C (single isomer, unassigned) [Example 60a]" numeric_result=1.2
compound="Cc1cc(Nc2ncnc3cnc(N4CCOCC4)nc23)ccc1Oc1cc(F)c2c(c1)ncn2C.O=C(O)C(F)(F)F [Example 70]" numeric_result=1

Query :: Quick one: give measured efflux ratio at 2 h, 1 μM for Cc1c(Oc2ccc3c(c2)ncn3C)ccc(Nc2ncnc3cnc(N4CCC[C@](C)(O)C4)nc23)c1F [Example 147]
Result :: 2.7

Query :: Input Cc1cc(Nc2ncnc3cnc(-c4cccnc4)nc23)ccc1Oc1ccc2c(c1)ncn2C [Example 233] , output reported efflux ratio at 2 h, 1 μM.
Result :: 1.6

====

ErbB2 WT (Homo sapiens (Human)) pIC50 data
// scale note: pIC50 = -log10(conc_M); give the bare number

Query :: Output reported pIC50 of the compound Cc1cc(Nc2ncnc3cnc(N4CCN(C)[C@@H](C)C4)nc23)ccc1Oc1ccc2c(c1)ncn2C [Example 280] on ErbB2 WT (Homo sapiens (Human)).
Result :: 7.11

Query :: Recall the reported pIC50 of Cc1cc(Nc2ncnc3cnc(N(C)CC(F)F)nc23)ccc1Oc1ccn2ncnc2c1 [Example 372] when tested on ErbB2 WT (Homo sapiens (Human)).
Result :: 7.15

Query :: # return pIC50 for Cc1cc(Nc2ncnc3cnc(N4CCC45COC5)nc23)ccc1Oc1ccn2ncnc2c1 [Example 369] , test system: ErbB2 WT (Homo sapiens (Human))
Result :: 7.43

Query :: Please respond with reported pIC50 (system ErbB2 WT (Homo sapiens (Human))) for Cc1cc(Nc2ncnc3cnc(N(C)[C@H]4C[C@@H](O)C4)nc23)ccc1Oc1ccc2c(c1)ncn2C [Example 183] .
Result :: 8.24

Query :: Using ErbB2 WT (Homo sapiens (Human)) as the test system, report measured pIC50 of Cc1cc(Nc2ncnc3cnc(N4CCCC4=O)nc23)ccc1Oc1ccc2c(c1)ncn2C [Example 34] .
Result :: 6.51

Query :: Specify the recorded pIC50 for Cc1cc(Nc2ncnc3cnc(NC4(C)CC4)nc23)ccc1Oc1ccc2c(c1)ncn2C [Example 268] , system: ErbB2 WT (Homo sapiens (Human)).
Result :: 7.03

Query :: Using ErbB2 WT (Homo sapiens (Human)) as the test system, report measured pIC50 of Cc1c(Oc2ccn3ncnc3c2)ccc(Nc2ncnc3cnc(N4C[C@@H](O)C(F)(F)C4)nc23)c1F [Example 316] .
Result :: 6.95

Query :: Give the observed pIC50 of Cc1cc(Nc2ncnc3cnc(O[C@H]4C[C@@H](F)CN(C)C4)nc23)ccc1Oc1ccc2c(c1)ncn2C [Example 302] for ErbB2 WT (Homo sapiens (Human)).
Result :: 6.41

Query :: Return reported pIC50 for target or system ErbB2 WT (Homo sapiens (Human)), item Cc1cc(Nc2ncnc3cnc(N(C)[C@H]4C[C@H](O)C4)nc23)ccc1Oc1ccn2ncnc2c1 [Example 366] .
Result :: 8.17

Query :: Answer with pIC50 of Cc1cc(Nc2ncnc3cnc(N4CC5(CCO5)C4)nc23)ccc1Oc1ccc2c(c1)ncn2C [Example 282] measured for ErbB2 WT (Homo sapiens (Human)).
Result :: 7.08

Query :: Please report pIC50 with ErbB2 WT (Homo sapiens (Human)) for item Cc1cc(Nc2ncnc3cnc(N4C[C@@H]5CC[C@H]4CO5)nc23)ccc1Oc1ccc2c(c1)ncn2C [Example 53] .
Result :: 7.12

Query :: State, for ErbB2 WT (Homo sapiens (Human)), measured pIC50 of the compound listed here: N#C[C@@H]1CCN(c2ncc3ncnc(Nc4ccc(Oc5ccn6ncnc6c5)c(Cl)c4)c3n2)C1 [Example 387]
Result :: 6.88

Query :: # assay system ErbB2 WT (Homo sapiens (Human)): give pIC50 of Cc1cc(Nc2ncnc3cnc(N4CCC[C@@]45CCOC5)nc23)ccc1Oc1ccc2c(c1)ncn2C (racemic) [Example 115]
Result :: 7.25
